Tested on: SK-MEL-5 melanoma
Assay: NCI-60 one-dose screen, 48 h (100 = growth as untreated, 0 = no growth, -100 = all killed)
Conditions: 10 µM
About 83,000 compounds went through this panel and 20% of them were active in at least one assay; those are over-represented in the sample as a whole. Active and inactive are the calls of the source. Rule for the calls: active = growth percent below 10; inactive = the rest.
assay.endpoint: growth

{"columns": ["compound", "assay.endpoint", "result"],
 "data": [
  ["CN(C)CCCn1c(=O)c2ccccc2c2cnc3[nH]ccc3c21", "growth", "10.3% (inactive)"]
]}

Dear colleague, could you please provide growth for the compounds listed below?
1. COc1cc(NC(=O)CCSc2nc3ccc(Cl)cc3c(=O)n2Cc2ccccc2)cc(OC)c1OC
2. Nc1ccc2cc(S(=O)(=O)O)cc(O)c2c1N=Nc1ccc(F)cc1

A:
1. 74.8% (inactive)
2. 108% (inactive)

Dear colleague, could you please provide growth for the compounds listed below?
1. CCc1ccc2c(c1)N(CCO)C1=C(C(=O)OC1)C2c1ccccc1 (stereo not given)
2. CC/C(=N\N=C(/CC)c1ccc(Br)cc1)c1ccc(Br)cc1
3. CCOC(=O)c1ccoc1
4. O=C(O)CC(Cl)C(Cl)CC(=O)O (stereo not given)
5. O=C1OCC2=C1C(c1cccc(Br)c1)c1cc3c(cc1N2CCO)CCC3 (stereo not given)
6. CC12O[C@H](C[C@@H](OC(=O)c3ccccc3)[C@H]1O)n1c3ccccc3c3c4c(c5c6ccccc6n2c5c31)C(=O)NC4=O
7. Cc1cc(N(CCCNc2ccnc3cc(Cl)ccc23)Cc2ccc3c(c2)OCO3)nc(N2CCCCC2)n1

A:
1. 87.3% (inactive)
2. 104% (inactive)
3. 99.6% (inactive)
4. 108% (inactive)
5. -12.6% (active)
6. 48.6% (inactive)
7. -95.3% (active)

Dear colleague, could you please provide growth for the compounds listed below?
1. CCN(CC)CCSCCCNc1c2ccc(Cl)cc2nc2ccc(OC)cc12
2. Cn1c([N+](=O)[O-])cnc1/C=C1\Oc2ccccc2C1=O
3. O=[N+]([O-])c1cccc(-c2ncc(-c3ccc(Cl)cc3Cl)[nH]2)c1
4. O=C(Nc1ccccc1)Nc1cccc(-n2cc(-c3ccncc3)c(-c3ccc(O)c(Cl)c3)n2)c1
5. CSC1=NCCCC1

A:
-99.1% (active)
-94.1% (active)
94.7% (inactive)
42.8% (inactive)
106% (inactive)

All values here come from PubChem BioAssay (NCI).
